# Tested on: SARS-CoV-2
# TEST DETAILS: microbe, parasite or virus in culture
# Type: cell-based
# MEASUREMENT SETUP: Severe acute respiratory syndrome coronavirus 2; Calu-3 cells (human lung cells) infected with SARS-CoV-2
EXPERIMENTAL READOUT: IC50 (µM)
Just the number please, in µM, no unit attached.

Q: Assign IC50 to the following record: COc1ncc(-c2ccc3nccc(-c4ccnnc4)c3c2)cc1NS(=O)(=O)c1ccc(F)cc1F
Result: 0.01

Values were extracted from patent US12544360B2.
